# tested on: T1, Cre recombinase monomer with Q311R mutation
# T1 chain: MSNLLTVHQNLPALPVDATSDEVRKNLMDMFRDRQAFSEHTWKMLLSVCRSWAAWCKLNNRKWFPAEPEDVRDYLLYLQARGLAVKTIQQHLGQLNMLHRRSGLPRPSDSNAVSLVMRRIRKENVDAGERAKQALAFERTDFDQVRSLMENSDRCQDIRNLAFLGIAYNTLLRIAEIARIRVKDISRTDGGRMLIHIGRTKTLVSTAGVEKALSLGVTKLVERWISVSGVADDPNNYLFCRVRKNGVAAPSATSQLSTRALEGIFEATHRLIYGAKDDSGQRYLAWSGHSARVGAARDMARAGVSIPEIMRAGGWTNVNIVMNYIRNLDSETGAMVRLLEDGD
reported property: Median dimer activity (recombination on loxP) (%)
Expressed in %, but write only the number.

Solved entries (count: 3):
Cre recombinase monomer with K201Q mutation (protein) MSNLLTVHQNLPALPVDATSDEVRKNLMDMFRDRQAFSEHTWKMLLSVCRSWAAWCKLNNRKWFPAEPEDVRDYLLYLQARGLAVKTIQQHLGQLNMLHRRSGLPRPSDSNAVSLVMRRIRKENVDAGERAKQALAFERTDFDQVRSLMENSDRCQDIRNLAFLGIAYNTLLRIAEIARIRVKDISRTDGGRMLIHIGRTQTLVSTAGVEKALSLGVTKLVERWISVSGVADDPNNYLFCRVRKNGVAAPSATSQLSTRALEGIFEATHRLIYGAKDDSGQRYLAWSGHSARVGAARDMARAGVSIPEIMQAGGWTNVNIVMNYIRNLDSETGAMVRLLEDGD : 94
Cre recombinase monomer with R173G mutation (protein) MSNLLTVHQNLPALPVDATSDEVRKNLMDMFRDRQAFSEHTWKMLLSVCRSWAAWCKLNNRKWFPAEPEDVRDYLLYLQARGLAVKTIQQHLGQLNMLHRRSGLPRPSDSNAVSLVMRRIRKENVDAGERAKQALAFERTDFDQVRSLMENSDRCQDIRNLAFLGIAYNTLLGIAEIARIRVKDISRTDGGRMLIHIGRTKTLVSTAGVEKALSLGVTKLVERWISVSGVADDPNNYLFCRVRKNGVAAPSATSQLSTRALEGIFEATHRLIYGAKDDSGQRYLAWSGHSARVGAARDMARAGVSIPEIMQAGGWTNVNIVMNYIRNLDSETGAMVRLLEDGD : 95
Cre recombinase monomer with R292Y mutation (protein) MSNLLTVHQNLPALPVDATSDEVRKNLMDMFRDRQAFSEHTWKMLLSVCRSWAAWCKLNNRKWFPAEPEDVRDYLLYLQARGLAVKTIQQHLGQLNMLHRRSGLPRPSDSNAVSLVMRRIRKENVDAGERAKQALAFERTDFDQVRSLMENSDRCQDIRNLAFLGIAYNTLLRIAEIARIRVKDISRTDGGRMLIHIGRTKTLVSTAGVEKALSLGVTKLVERWISVSGVADDPNNYLFCRVRKNGVAAPSATSQLSTRALEGIFEATHRLIYGAKDDSGQRYLAWSGHSAYVGAARDMARAGVSIPEIMQAGGWTNVNIVMNYIRNLDSETGAMVRLLEDGD : 96

Median dimer activity (recombination on loxP) lookup needed for Cre recombinase monomer with E176L mutation (protein) MSNLLTVHQNLPALPVDATSDEVRKNLMDMFRDRQAFSEHTWKMLLSVCRSWAAWCKLNNRKWFPAEPEDVRDYLLYLQARGLAVKTIQQHLGQLNMLHRRSGLPRPSDSNAVSLVMRRIRKENVDAGERAKQALAFERTDFDQVRSLMENSDRCQDIRNLAFLGIAYNTLLRIALIARIRVKDISRTDGGRMLIHIGRTKTLVSTAGVEKALSLGVTKLVERWISVSGVADDPNNYLFCRVRKNGVAAPSATSQLSTRALEGIFEATHRLIYGAKDDSGQRYLAWSGHSARVGAARDMARAGVSIPEIMQAGGWTNVNIVMNYIRNLDSETGAMVRLLEDGD , thanks.
40
